test_summary: method code SF-RC, from DOI: 10.1016/0014-2999(79)90231-0, PMID: 527663
protocol_conditions: pH 1.0

| query_smiles | logD |
| --- | --- |
| O=C(O)[C@H]1O[C@H](O)[C@H](O)[C@@H](O)[C@@H]1O | -2.57 |

====

test_summary: method code SF-NMR, from DOI: 10.1016/j.jpba.2012.12.010, PMID: 23298914
protocol_conditions: pH 7.7

| query_smiles | logD |
| --- | --- |
| COC(=O)[C@@H](N)Cc1ccc(O)c(I)c1 | 0.26 |

====

Here the recorded logP is given for each entry.
measurement_name: logP

| query_smiles | test_result |
| --- | --- |
| Clc1ccc(-c2ccccc2)cc1Cl | 5.11 |
| Cc1ccc(O)c(C)c1 | 2.48 |
| CC(C)(C)O | 0.34 |
